# System under test: KRas G12D (Homo sapiens, UniProt P01116, G12D)
# Experiment: KRas G12D Surface Plasmon Resonance (SPR) Binding Assay
# Measurement context: Biacore T200, biotinylated Avidin-tagged KRAS protein on SA chip, 20 C, 1:1 binding model
# Sequence (P01116 1-188 isoform P01116-2 G12D): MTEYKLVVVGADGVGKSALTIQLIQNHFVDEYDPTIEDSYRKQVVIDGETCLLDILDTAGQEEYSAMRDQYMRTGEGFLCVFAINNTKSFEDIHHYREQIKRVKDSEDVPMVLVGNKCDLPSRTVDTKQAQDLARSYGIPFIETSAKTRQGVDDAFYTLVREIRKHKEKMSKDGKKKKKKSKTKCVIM
Readout kind: Kd (µM)

{"columns": ["Compound", "Readout kind", "Assay result"],
 "data": [
  ["Cc1ccc2[nH]ncc2c1N1CCc2c(nc(OC[C@@H]3CCCN3C)nc2N2C[C@H]3CC[C@@H](C2)N3)C1", "Kd", 6.37]
]}

(P) CN1CCC[C@H]1COc1nc2c(c(N3C[C@H]4CC[C@@H](C3)N4)n1)CCN(c1nc(N)nc3ccccc13)C2
(Q) CN1CCC[C@H]1COc1nc2c(c(N3C[C@H]4CC[C@@H](C3)N4)n1)CCN(c1cccc3cccc(CCCC#N)c13)C2
(R) CN1CCC[C@H]1COc1nc2c(c(N3C[C@H]4CC[C@@H](C3)N4)n1)CCN(c1cccc3cccc(F)c13)C2
Request: Order field: Kd | Direction: descending (largest first) Please list each label once, in the requested order.
Result: P, Q, R
(P: 598 µM, Q: 19.9 µM, R: 3.16 µM)

====

# System under test: KRas G12D (Homo sapiens, UniProt P01116, G12D)
# Experiment: KRas G12D Binding Assay (TR-FRET displacement of labeled tracer)
# Measurement context: TR-FRET displacement of Cy5 labelled tracer, biotinylated GDP-loaded KRAS G12D (aa 1:169), 60 minute incubation at 22° C.
# Sequence (P01116 1-169 isoform P01116-2 G12D): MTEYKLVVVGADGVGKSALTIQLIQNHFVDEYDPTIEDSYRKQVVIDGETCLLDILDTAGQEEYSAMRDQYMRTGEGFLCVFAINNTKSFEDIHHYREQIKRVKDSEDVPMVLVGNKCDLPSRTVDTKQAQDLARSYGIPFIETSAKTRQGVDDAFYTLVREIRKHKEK
Readout kind: IC50 (nM)

{"columns": ["Compound", "Unit spec", "IC50"],
 "data": [
  ["CCc1cccc2cccc(N3CCc4c(nc(OCC56CCCN5C(CO)CC6)nc4N4C[C@H]5CC[C@@H](C4)N5)C3)c12 (mixture of isomers) [Example 103]", "nM", 3.9],
  ["CC(C)c1ccccc1N1CCc2c(nc(OCC34CCCN3[C@@H](COC(=O)N(C)C)CC4)nc2N2CC3CCC(C2)N3)C1 (some centres unmarked) [Example 32]", "nM", 1170],
  ["COC[C@H]1C[C@@H]2CN(c3nc(OC[C@@H]4CCCN4C)nc4c3CCN(c3cccc5cccc(Cl)c35)C4)C[C@H]1N2 (single isomer, unassigned) [Example 94]", "nM", 852],
  ["Brc1ccc(N2CCc3c(nc(OCC45CCCN4CCC5)nc3N3C[C@H]4CC[C@@H](C3)N4)C2)c2ccccc12 [Example 112]", "nM", 5460],
  ["CCc1cccc2cccc(N3CCc4c(nc(OCC56CCCN5[C@@H](COC(=O)NC)CC6)nc4N4CC5CCC(C4)N5)C3)c12 (some centres unmarked) [Example 5]", "nM", 1.6],
  ["CNC(=O)OC[C@H]1CCC2(COc3nc4c(c(N5CC6CCC(C5)N6)n3)CCN(c3cccc5cccc(F)c35)C4)CCCN12 (some centres unmarked) [Example 34]", "nM", 111],
  ["CCc1cccc2cccc(N3CCc4c(nc(OCC56CCCN5CC(F)C6)nc4N4C[C@H]5CC[C@@H](C4)N5)C3)c12 (mixture of isomers) [Example 9]", "nM", 3.1],
  ["CN1CCC[C@H]1COc1nc2c(c(N3C[C@H]4CC[C@@H](C3)N4)n1)CCN(c1cccc3ccc(F)cc13)C2 [Example 72]", "nM", 226],
  ["CCc1cccc2cccc(N3CCc4c(nc(OC[C@]56CCCN5[C@@H](COC(=O)N(C)CCO)CC6)nc4N4C[C@H]5CC[C@@H](C4)N5)C3)c12 [Example 107]", "nM", 2],
  ["CCc1c(F)ccc2cc(O)cc(N3CCc4c(nc(OCC56CCCN5CCC6)nc4N4C[C@H]5CC[C@@H](C4)N5)C3)c12 [Example 119]", "nM", 1.6],
  ["Brc1cc(N2CCc3c(nc(OCC45CCCN4CCC5)nc3N3C[C@H]4CC[C@@H](C3)N4)C2)c2ccccc2c1 [Example 111]", "nM", 1050],
  ["Oc1cc(N2CCc3c(nc(OCC45CCCN4C[C@H](F)C5)nc3N3CC4CCC(C3)N4)C2)c2ccccc2c1 (mixture of isomers) [Example 47]", "nM", 1]
]}

FYI, the data here is from patent US12686692B2.
